src = ChEMBL document CHEMBL3232903

# assayExplanation: Inhibition of RNA-dependent RNA polymerase activity of HCV genotype 1b HC-J4 recombinant N-terminal histidine tagged C-terminal 21 aminoacids truncated NS5B polymerase after 1 hr by standard primer dependent elongation assay
# Design: species or system Hepatitis C virus isolate HC-J4
pIC50: −log10 of the molar value.
reportedProperty: pIC50

Worked examples follow.
smilesInput	readoutValue
Cc1ccc(-n2nc(C(=O)Nc3ccc(NS(C)(=O)=O)cc3)c3c2-c2ccccc2S(=O)(=O)N3C)cc1Cl	5.10
CN1c2c(C(=O)Nc3ccc(NS(C)(=O)=O)cc3)nn(-c3ccc(Cl)c(C(F)(F)F)c3)c2-c2ccccc2S1(=O)=O	< 4.30

Record request: pIC50 value, item CN1c2c(NC(=O)c3ccc(NS(C)(=O)=O)cc3)nn(-c3cccc(F)c3)c2-c2ccccc2S1(=O)=O
< 4.30

What about COc1ccc(-n2nc(C(=O)Nc3ccc(NS(C)(=O)=O)cc3)c3c2-c2ccccc2S(=O)(=O)N3C)cc1 ?
< 4.30

---

# assayExplanation: Cytostatic activity against human Huh-9-13 cells carrying HCV genotype 1b I389luc-ubi-neo/NS3-3'/5.1 replicon assessed as reduction in metabolic activity after 72 hrs by MTS assay
# Type: ADME, cell-based
reportedProperty: CC50

Record request: CC50 value, item CN1c2c(C(=O)Nc3ccc(NS(C)(=O)=O)cc3)nn(-c3cccc(Cl)c3)c2-c2ccccc2S1(=O)=O
> 90 µM

---

# assayExplanation: Metabolic stability of the compound in human liver microsomes assessed as unmodified compound remaining after 60 mins
# Format: ADME
# conditionNotes: read-out: Stability
reportedProperty: remaining at 1 h
Remember to follow the number with its unit.

Record request: remaining at 1 h value, item CN1c2c(C(=O)Nc3ccc(NS(C)(=O)=O)cc3)nn(-c3cccc(Cl)c3)c2-c2ccccc2S1(=O)=O
99.9%

---

# assayTarget: RNA-directed RNA polymerase (Hepacivirus hominis, UniProt O39930, M423T)
# assayExplanation: Inhibition of RNA-dependent RNA polymerase activity of HCV genotype 1b HC-J4 recombinant N-terminal histidine tagged C-terminal 21 aminoacids truncated NS5B polymerase M423T mutant at thumb site 2 after 1 hr by standard primer dependent elongation assay
reportedProperty: pIC50
For clarity, pIC50 is expressed as the negative log10 of concentration in mol/L.

Record request: pIC50 value, item CN1c2c(C(=O)Nc3ccc(NS(C)(=O)=O)cc3)nn(-c3cccc(Cl)c3)c2-c2ccccc2S1(=O)=O
5.03

---

# assayTarget: RNA-directed RNA polymerase (Hepacivirus hominis, UniProt O39930, P495L)
# assayExplanation: Inhibition of RNA-dependent RNA polymerase activity of HCV genotype 1b HC-J4 recombinant N-terminal histidine tagged C-terminal 21 aminoacids truncated NS5B polymerase P495L mutant at thumb site 1 after 1 hr by standard primer dependent elongation assay
reportedProperty: IC50
Remember to follow the number with its unit.

Record request: IC50 value, item CN1c2c(C(=O)Nc3ccc(NS(C)(=O)=O)cc3)nn(-c3cccc(Cl)c3)c2-c2ccccc2S1(=O)=O
5.1 µM

---

# assayExplanation: Inhibition of RNA-dependent RNA polymerase activity of HCV genotype 1b HC-J4 recombinant N-terminal histidine tagged C-terminal 21 aminoacids truncated NS5B polymerase after 1 hr by standard primer dependent elongation assay
# Set-up: species or system Hepatitis C virus isolate HC-J4
pIC50: −log10 of the molar value.
Label rule, in plain words: pIC50 of 5 and up is fulfilled, under 5 is not fulfilled.

smilesInput	classification
CN1c2c(C(=O)Nc3ccc(NS(C)(=O)=O)cc3)nn(-c3ccccc3Cl)c2-c2ccccc2S1(=O)=O	not fulfilled

Hi, just wondering whether COc1cccc(-n2nc(C(=O)Nc3ccc(NS(C)(=O)=O)cc3)c3c2-c2ccccc2S(=O)(=O)N3C)c1 shows pIC50 of 5 or higher.
not fulfilled

What about CN1c2c(C(=O)Nc3ccc(OCC(N)=O)cc3)nn(-c3cccc(F)c3)c2-c2ccccc2S1(=O)=O ?
not fulfilled

What about CN1c2c(C(=O)Nc3ccc(NS(C)(=O)=O)cc3)nn(-c3ccc(Cl)c(Cl)c3)c2-c2ccccc2S1(=O)=O ?
fulfilled

What about CN1c2c(C(=O)Nc3ccc(NS(C)(=O)=O)cc3)nn(-c3ccccc3Br)c2-c2ccccc2S1(=O)=O ?
not fulfilled

What about CN1c2c(C(=O)Nc3ccccc3)nn(-c3cccc(F)c3)c2-c2ccccc2S1(=O)=O ?
not fulfilled
